Test: protein stability index of a GFP-peptide fusion (GPS, HEK-293T) (PSI 1-6); higher = more stable;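 further: 24-mer peptide tiles fused after GFP, lentivirally expressed, FACS-sorted into six equal bins by GFP/DsRed ratio, decoded by Illumina sequencing, PSI is the read-weighted mean bin number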
Details: treatment: MLN4924 1 uM, 8 h; c terminus: a fixed tail appended

{"residue-sequence": "ASTVTEIVKQQDPLVYKAIQQGIN [ACSBG2]", "protein stability index": 3.96}
{"residue-sequence": "TDRPLLSTLEESVVRICCIRSFGH [SMG5]", "protein stability index": 2.08}
{"residue-sequence": "SRRIYRCRNCINLQNEAQKRESFL [IQUB]", "protein stability index": 2.24}
{"residue-sequence": "LAATQAEKAVANFDRTEWVQIRRL [ZC2HC1C]", "protein stability index": 3.16}
{"residue-sequence": "IDGVATTRYSVAGLSPYSDYEFRV [PTPRD]", "protein stability index": 2.02}
{"residue-sequence": "EMAATPAGFAQLTHLLMGLAGGKL [HDAC6]", "protein stability index": 2.39}
{"residue-sequence": "PENILLDRDGHIKLTDFGFAKKLV [PRKX]", "protein stability index": 3.08}
{"residue-sequence": "STSAVPNLFVPLNTNPKEVQEMRN [ADD1]", "protein stability index": 4.43}
{"residue-sequence": "VIFGVELPGNEEFQVVKDAVLDCL [TENT5D]", "protein stability index": 2.25}
{"residue-sequence": "QQFQPAGTDQVCVLEWGAEGVAGK [FCHSD1]", "protein stability index": 4.64}
{"residue-sequence": "NGLNARMMHGGSYSLTTSSTHKRS [RAB40B]", "protein stability index": 4.34}
{"residue-sequence": "VSNTPLRTVDGSPMMKAAMYSVEI [PALM]", "protein stability index": 2.42}
{"residue-sequence": "EPVTLETPAFMFRLDASTSHQNLR [FSD1]", "protein stability index": 3.83}

----------
Test: protein stability index of a GFP-peptide fusion (GPS, HEK-293T) (PSI 1-6); higher = more stable
Settings: treatment: DMSO; c terminus: a fixed tail appended

{"residue-sequence": "KKKCLEWLLNNLMTHQNVELFKEL [GMCL1]", "protein stability index": 2.54}
{"residue-sequence": "ATTIDNSRVILEIDNARLAADDFR [KRT15]", "protein stability index": 3.7}
{"residue-sequence": "ENCERREAFWAEWKDLTLSTRPEE [TCAP]", "protein stability index": 4.53}
{"residue-sequence": "NPEEIRGGGLLKYSNLLVRDFRPT [TENT5C]", "protein stability index": 3.04}
{"residue-sequence": "EAPASVVPFVRVKREREVDEDSEP [USP39]", "protein stability index": 5.51}
{"residue-sequence": "YLATAKVLITVEDVNDNSPELTIT [PCDHGA10]", "protein stability index": 2.49}
{"residue-sequence": "LQLGAAKKPPVTFAEKGELRKSIF [TRIM29]", "protein stability index": 3.14}
{"residue-sequence": "SDVLIGDILVLLGASLYAISNVCE [SLC35F2]", "protein stability index": 2.79}
{"residue-sequence": "DHEHEEADLELSLPECLEYEEEFD [GNAS]", "protein stability index": 5.55}
{"residue-sequence": "GEIETIARFGSGPCKTRDDEPVCG [APMAP]", "protein stability index": 4.66}
{"residue-sequence": "MRPWTGSWRWIMLILFAWGTLLFY [FUT8]", "protein stability index": 3.24}
{"residue-sequence": "REQLQAEASERFAAGYIQCMHEVH [HES6]", "protein stability index": 3.62}
{"residue-sequence": "LSLLVMVISPVIQLQPTFTPMRVA [NSDHL]", "protein stability index": 3.08}
{"residue-sequence": "PNKDMVVQLIDDFKISGMNGIHVC [SRPK2]", "protein stability index": 2.38}
{"residue-sequence": "RKSVRYTRQKKNLPDSPLRFDGLP [TRIM15]", "protein stability index": 3.59}
{"residue-sequence": "DLRKHRRKLLSPVSREENREDKAT [PPFIA4]", "protein stability index": 4.52}
{"residue-sequence": "ELQRQKEAEKLERQLALPATEQAA [NOP53]", "protein stability index": 5.14}
{"residue-sequence": "ADRIIEVDMECQTDAFLDRPPTPL [RSPH3]", "protein stability index": 4.3}
{"residue-sequence": "KKFRTKSRTWAGEKSKREMYSRLK [CDC25A]", "protein stability index": 3.05}
{"residue-sequence": "FTLNFFRSGIQFGSWGSFQLPGLL [CLCN6]", "protein stability index": 2.93}
{"residue-sequence": "LFEGMIWFLVPISSVICNDITAYL [CDS1]", "protein stability index": 3.91}
{"residue-sequence": "HGRARIARLMLESEYRSDIINAKS [ASB7]", "protein stability index": 3.05}
{"residue-sequence": "RSHENKLRQLTAELAEHRCHPVER [PSD2]", "protein stability index": 3.84}
{"residue-sequence": "DKERFTTLVQDLANAFQQEAQTSG [CHIT1]", "protein stability index": 4.19}
{"residue-sequence": "FLTSRTRALLRRFPRMLLVDRLPG [ZSWIM9]", "protein stability index": 2.57}
{"residue-sequence": "YEDIRRENPVGTFHCSMSPGNLEK [PTPN9]", "protein stability index": 4.58}
{"residue-sequence": "LHNLLLHQEGAKMAVRLAGGLQKM [CTNNB1]", "protein stability index": 2.02}
{"residue-sequence": "FARHIKKSEGQKIPKVELQISIYG [GULP1]", "protein stability index": 2.06}
{"residue-sequence": "IPVAMEHQPPYIIAVLPRYVEIRT [VPS39]", "protein stability index": 2.6}
{"residue-sequence": "AHLAAEVEGKCLQSGFEMLKDVKS [TRIM39]", "protein stability index": 4.17}
{"residue-sequence": "EEAGSQENHPQESKGQPRSQEESE [CHGB]", "protein stability index": 5.57}
{"residue-sequence": "DMWSIGVITYILLSGASPFLGETK [DAPK3]", "protein stability index": 3.15}
{"residue-sequence": "DLHCVLVTNPHSSQWKDPALSQLI [GADD45A]", "protein stability index": 2.23}
{"residue-sequence": "YTNSAGVPSLNAALMHTLQRHRDI [GOSR1]", "protein stability index": 2.79}
{"residue-sequence": "KRRGPQRSVDVVVSSVFLLTLSIA [PHTF1]", "protein stability index": 2.55}
{"residue-sequence": "PGAPGMPPGIPPLMPGVPPLMPGM [ZNF207]", "protein stability index": 3.71}
{"residue-sequence": "DQSKLAGLLDLNNAILQLVKKYKS [ESRRG]", "protein stability index": 2.4}
{"residue-sequence": "TPPEEQQEAEEPKARVLRSKSLCH [CDC25B]", "protein stability index": 5.37}
{"residue-sequence": "FYGLLFTSENLKLVHIVCHKKTTH [DFFB]", "protein stability index": 2.73}
{"residue-sequence": "LLDDSKTWWRVRNAANRTGYVPSN [NCK2]", "protein stability index": 2.93}
{"residue-sequence": "RQVPGSDPACYEFLWGPRALIETS [MAGEA6]", "protein stability index": 2.62}
{"residue-sequence": "CFSVSMLAGPNDRSDVEKGGKIIM [UFD1]", "protein stability index": 2.92}
{"residue-sequence": "VAGILSLLLGTAYSFYLFHPLAYG [POMT2]", "protein stability index": 3.16}
{"residue-sequence": "QAQGQLRELLDRAMREAIQSYPSQ [SOAT2]", "protein stability index": 3.01}
{"residue-sequence": "QEYNIPGVIQSVIGWKTVRMYPFQ [CDS2]", "protein stability index": 2.45}
{"residue-sequence": "QEITEQQDIAQEISEAFSQRVGFG [CHMP4C]", "protein stability index": 5.02}
{"residue-sequence": "MDVSREEAPQWLESDSCQKCEQPF [WDFY1]", "protein stability index": 4.89}
{"residue-sequence": "PSTICFGQGAARGFKSNKKKTKQC [ZNF511]", "protein stability index": 4.14}
{"residue-sequence": "KVEQAKKPSFQSGGRRRPPASSRN [RBMY1A1]", "protein stability index": 4.63}
{"residue-sequence": "GSYNGQIGWFPSNYVLEEVDEAAA [NCK2]", "protein stability index": 4.65}
{"residue-sequence": "FRPGHLLANACLPVRTTNKISKQF [ZSWIM9]", "protein stability index": 2.78}
{"residue-sequence": "TEYQIVTDPGDVPAFLKWLSLASL [SLC2A12]", "protein stability index": 2.26}
{"residue-sequence": "FRIFIIWAISSWFRRGPAPQDQAG [CLPTM1]", "protein stability index": 2.23}
